Ref: the SangsterLogP compilation

EXPERIMENT SUMMARY: method code G-HPLC, from DOI: 10.1016/s0021-9673(01)94303-1
MEASURED ENDPOINT: logP
One number for each entry.

So for CCCCc1ccccc1 , the logged logP turned out to be 4.29

---

So I've got a bunch of compounds here, and I need their logP values.

* Oc1cc(Cl)ccc1Cl | 3.06

Lab note: next compound to report on.
For this compound ( Oc1cccc(F)c1 ), measured logP is 1.82

---

EXPERIMENT SUMMARY: method code SF-RC, from DOI: 10.1002/jlcr.3239, PMID: 25359578
CONDITION DETAILS: pH 7.4
MEASURED ENDPOINT: logD

Reported logD of O=C(NCCF)Nc1ccc(-c2nc(N3CC4CCC(C3)O4)c3cnn(CC(F)(F)F)c3n2)cc1 : 1.9
